Recorded values, source patent US20220073643A1.

biological target: human Claudin18.2 (human); assay: cell-based or functional assay
outcome.measure: ADCC EC50 (mg/L)
Give the value in mg/L but do not write mg/L after it.

See these solved cases before continuing.
binder	ADCC EC50 [mg/L]
chimeric 237D2A4 (antibody, human IgG1, kappa, V domains shown, chimeric, human IgG1/kappa constant regions; also called 237D2A4-Chimeric) VH: QVQLKESGPGLVAPSQSLSITCTVSGFSLTSYGVSWVRQPPGKGLEWLGVIWGDGSTNYHSTLISRLRISKDKSKSQVFLKLNSLQTDDTATYYCAKAGRGNALDYWGQGTSVTVSS VL: DIVMTQSPSSLTVTAGEKVTMSCKSSQSLLNSGNQKNYLTWYQQKPGQPPKLLIYWASTRESGVPDRFTGSGSGTDFTLTISSVQAEDLAVYYCQNDYSFPLTFGAGTKLELKR	0.0214
chimeric 253E4F7 (antibody, human IgG1, kappa, V domains shown, chimeric, human IgG1/kappa constant regions) VH: EIQLQQSGPELMKPGASVKMSCKASGYSFTSYYIHWVKQSHGKSLEWIGYIDPFNGGTRYNQKFEGKATLTVDKSSTTAYMHLSSLTSEDSTVYYCASLRFLAYWGQGTLVTVSA VL: DIVMTQSPSSLTVTAGEKVTMTCKSSQSLLNSGNQKNYLTWYQQKPGQPPKVLISRASTRQSGVPDRFTGSGSGTDFTLTISSVQAEDLAVYYCQNDYSYPLTFGAGTKLELKR	0.0225
chimeric 257G7B9 (antibody, human IgG1, kappa, V domains shown, chimeric, human IgG1/kappa constant regions) VH: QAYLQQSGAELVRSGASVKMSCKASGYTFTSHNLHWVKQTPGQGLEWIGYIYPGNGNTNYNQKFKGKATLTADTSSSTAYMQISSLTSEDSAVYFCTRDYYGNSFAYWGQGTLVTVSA VL: DIVMTQSPSSLTEKAGERVSMSCKSSQSLFNSGNQKNYLTWYQQKPGQPPKLLIYWASTRESGVPDRFTGSGSGTDFTLTISSVQAEDLAVYYCQNNYWFPFTFGAGTKLELKR	0.0556
chimeric 262C7C10 (antibody, human IgG1, kappa, V domains shown, chimeric, human IgG1/kappa constant regions) VH: QAYLQQSGAELVRSGASVKMSCKASGYTFTNYNIHWVKQTPGQGLEWIGYIYPGNGGNYYNQKFKGKATLTADTSSITAYMQISSLTSEDSAVYFCARDYYGNSFAYWGQGTLVTVSA VL: DIVMTQSPSSLTVTAGEKVTMNCKSSQSLLNSGNQKNYLTWYQQKPGQPPKLLIYWASTRESGVPDRFTGSGSGTDFTLTISSVQAEDLAIYYCQNDYYYPLTFGAGTKLELKR	0.0237
chimeric 222B6G5 (antibody, human IgG1, kappa, V domains shown, chimeric, human IgG1/kappa constant regions) VH: QTYLQQSGAELVRSGASVKMSCKASGYTFTSYNIHWVKQTPGQGLEWIGYISPGNGGTYYNLKFKDKATLTTATSSSTAYMQISSLTSEDSAVYFCATGRGFAYWGQGTLVTVSA VL: DIVMTQSPSSLTVTPGEKVTMSCKSSQSLFNSGNQKNYLIWYQQKPGQPPKLLIYRASTRDSGVPDRFTGSGSGTDFTLTISNVQAEDLAVYYCQNDYSYPLTFGAGTKLELKR	0.0276

Which ADCC EC50 is reported for this binder? chimeric 250F4G4 (antibody, human IgG1, kappa, V domains shown, chimeric, human IgG1/kappa constant regions) VH: QAYLQQSGAELVRSGASVKMSCKASGYTFTSHNMHWVKQTPGQGLEWIGYIYPGNGRTNYNQKFKGKATLTADTSSSTAYMQISSLTSEDSAVYFCTRDYYGNSFAYWGQGTLVTVSA VL: DIVMTQSPSSLTEKVGERVSMSCKSSQSLFNSGNQKNYLTWYQQKPGQPPKLLIYWASTRESGVPDRFTGSGSGTDFTLTISSVQAEDLAVYYCQNDYWYPFTFGAGTKLELKR
0.0281

Which ADCC EC50 is reported for this binder? chimeric 410H6H3 (antibody, human IgG1, kappa, V domains shown, chimeric, human IgG1/kappa constant regions; also called 410H6H3-Chimeric) VH: DVLLVESGGGLVQPGGSRKLSCAASGFTFSSSGMHWVRQAPEKGLEWVAYISSGSNTIYYADTLKGRFTISRDNPKNTLFLQMTSLRSEDTAMYYCARIYYGNSFVYWGQGTLVTVSA VL: DIVMTQSPSSLTVTAGEKVIMSCKSSQSLLNSGNQKNYLTWYQQKPGQPPKMLIYWASTRESGVPDRFRGSGSGTDFTLTISSVQAEDLAVYYCQNNYYYPLTFGTGTKLALKR
0.0039

Which ADCC EC50 is reported for this binder? chimeric 273C10E5 (antibody, human IgG1, kappa, V domains shown, chimeric, human IgG1/kappa constant regions) VH: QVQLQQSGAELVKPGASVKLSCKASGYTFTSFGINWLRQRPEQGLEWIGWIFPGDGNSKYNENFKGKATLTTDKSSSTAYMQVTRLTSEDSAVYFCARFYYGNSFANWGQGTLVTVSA VL: DIVMTQSPSSLTVTAGEKVTMSCKSSQSLLNSGNQKNYLTWYQQKPGQPPKLLIYWAATRESGVPDRFAGSGSGTDFTLTISSVQAEDLAVYYCQNDYFYPFTFGAGTKLELKR
0.0275

Which ADCC EC50 is reported for this binder? chimeric 429H6C5 (antibody, human IgG1, kappa, V domains shown, chimeric, human IgG1/kappa constant regions) VH: DVQLVESGGGLVQPGGSRKLSCAASGFTFSSFGMHWVRQAPEKELEWVAYISSGSSTIYYAHTVKGRFTISRDNPKNTLFLRMTSLGSEDTAMYYCVRFYYGNSFVNWGQGTLVTVSA VL: DIVMTQSPSSLTATAGEKVTMSCKSSQSLLNSGNQKNYLTWYQQKPGQPPKMLIYWASTRESGVPDRFAGSGSGTDFTLTISSVQAEDLAVYYCQNAYIYPLTFGAGTRLELKR
0.0184

Which ADCC EC50 is reported for this binder? chimeric 185F2G12 (antibody, human IgG1, kappa, V domains shown, chimeric, human IgG1/kappa constant regions) VH: QAYLQQSGAELVRSGASVKMSCKASGYTFTSYNMHWVRQTPGQGLEWIGYIYPGNGGTNYSQKFKGKASLTADTSSTTAYMQISSLTSEDSAVYFCATGRGFAYWGQGTLVTVSA VL: DIVMTQSPSSLTVTAGEKVTLSCKSSQSLFNTGNQKNYLTWYQQKPGQPPKLLIFRASTRESGVPDRFTGSGFGTDFTLTISSVQAEDLAVYYCQNDFSYPLTFGAGTKLELKR
0.00886
